Catalogue of compounds with associated IC50
Target: Inosine-5'-monophosphate dehydrogenase 2 (Homo sapiens)
Experiment: IMPDH2 Enzyme Inhibition and Human T-Lymphoblast (CEM) Proliferation Inhibition Assays
Details: pH 8; 25 °C
// return numeric value only (unit: nM, not printed)

>  <structure as smiles>
CN(C)c1ccc(C(C)(C)NC(=O)c2cc3[nH]c4ccccc4c(=O)c3cc2F)cn1

>  <measured attribute>
IC50

>  <unit abbreviation>
nM

>  <readout number>
850

$$$$
>  <structure as smiles>
CC(C)(NC(=O)c1cc2[nH]c3ccccc3c(=O)c2cc1F)c1ccccc1

>  <measured attribute>
IC50

>  <unit abbreviation>
nM

>  <readout number>
830

$$$$

Please examine the following record next.
Answer with reported IC50 of CC(C)(NC(=O)c1cc2[nH]c3ccccc3c(=O)c2cc1F)c1cnc2c(c1)OCCN2
920
